Molecular target: cloned human or rodent CNS receptors, channels, and transporters (PDSP panel) (Homo sapiens)
Construct: expressed in transfected cells
Assay: PDSP GPCR panel primary binding assays at 10 μM
Settings: M3; primary assay, replicate 3
Observed Property: Inhibition 3

As a guide, the following entries are already answered.
>  <Molecule>
CCC(=O)N1CCC(NC(=O)Nc2ccc(OC(F)(F)F)cc2)CC1 [UNC10302681A, TPPU]

>  <Inhibition 3>
13.87%

$$$$
>  <Molecule>
CC(=O)N1CCC(NC(=O)NC23CC4CC(CC(C4)C2)C3)CC1 [UNC10302683A, AR9281]

>  <Inhibition 3>
2.67%

$$$$
>  <Molecule>
CNc1nc(C)nc(N[C@H]2CCC[C@@H](C(=O)NCc3ccc(C#N)cc3C(F)(F)F)C2)n1 [UNC10302679A, GSK2256294A]

>  <Inhibition 3>
-7.08%

$$$$

Suppose we examine the molecule O=C(NC1CC1)C(=O)C(Cc1ccccc1)NC(=O)[C@H]1CCC(=O)N1Cc1ccccc1 (stereo partly shown) [UNC10302676A, ABT-957 (Alicapistat)] ; what Inhibition 3 value has been reported?
-10.47%

====

Quick list: Inhibition 1 per entry.
Target: cloned human or rodent CNS receptors, channels, and transporters (PDSP panel) (Homo sapiens, UniProt P28566)
Construct: expressed in transfected cells
Sequence (P28566 whole entry): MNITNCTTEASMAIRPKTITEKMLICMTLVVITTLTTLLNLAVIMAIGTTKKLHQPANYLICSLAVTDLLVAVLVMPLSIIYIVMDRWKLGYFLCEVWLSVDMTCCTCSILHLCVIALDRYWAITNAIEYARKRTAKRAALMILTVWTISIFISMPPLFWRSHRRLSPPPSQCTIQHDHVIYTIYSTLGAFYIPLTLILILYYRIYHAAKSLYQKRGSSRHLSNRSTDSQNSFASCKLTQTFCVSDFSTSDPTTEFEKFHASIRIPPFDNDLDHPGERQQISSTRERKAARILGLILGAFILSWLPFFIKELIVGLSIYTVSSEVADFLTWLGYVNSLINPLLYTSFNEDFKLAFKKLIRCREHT
Test: PDSP GPCR panel primary binding assays at 10 μM
Conditions: Receptor 5-HT1E; primary assay, 10 μM
Supply the numeric figure in %, leaving out any unit text.

As a guide, the following entries are already answered.
>  <Compound>
Cl.NC(=O)c1cnc(N[C@@H]2CCCC[C@@H]2N)nc1Nc1cccc(-n2nccn2)c1 [UNC10302682A, P505-15 (PRT06207 HCl)]

>  <Endpoint Unit>
%

>  <Reported Value>
-23.96

$$$$
>  <Compound>
c1cn2cc(-c3ccc4cn[nH]c4c3)nc(Nc3ccc(N4CCOCC4)cc3)c2n1 [UNC10302678A, Entospletinib (GS-9973)]

>  <Endpoint Unit>
%

>  <Reported Value>
-2.53

$$$$
>  <Compound>
CCCCNc1ncc2c(-c3ccc(CN4CCN(C)CC4)cc3)cn([C@H]3CC[C@H](O)CC3)c2n1 [UNC2025C, UNC2025]

>  <Endpoint Unit>
%

>  <Reported Value>
4.71

$$$$

Suppose we examine the compound O=c1oc2ccccc2cc1-c1cn2cc(Cc3ccc(F)cc3)sc2n1 [UNC10302680A, iMDK] ; what Inhibition 1 value has been reported?
3.08

====

Biological target: cloned human or rodent CNS receptors, channels, and transporters (PDSP panel) (Homo sapiens, UniProt P46098)
Construct: expressed in transfected cells
Sequence (P46098 24-478): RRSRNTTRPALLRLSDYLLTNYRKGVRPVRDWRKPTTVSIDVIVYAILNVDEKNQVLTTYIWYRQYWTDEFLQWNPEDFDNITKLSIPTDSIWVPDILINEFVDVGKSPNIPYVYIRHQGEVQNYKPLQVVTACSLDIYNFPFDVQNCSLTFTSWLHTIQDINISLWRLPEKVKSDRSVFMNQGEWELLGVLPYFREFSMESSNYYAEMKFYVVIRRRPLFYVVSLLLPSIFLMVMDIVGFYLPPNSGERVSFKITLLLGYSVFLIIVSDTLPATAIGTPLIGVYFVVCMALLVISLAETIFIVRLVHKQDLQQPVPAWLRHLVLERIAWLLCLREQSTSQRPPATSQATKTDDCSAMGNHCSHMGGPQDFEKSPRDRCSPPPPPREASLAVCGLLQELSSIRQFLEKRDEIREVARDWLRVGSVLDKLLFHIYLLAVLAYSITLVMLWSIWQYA
Assay: PDSP GPCR panel primary binding assays at 10 μM
Conditions: 5-HT3; primary assay, replicate 4
Observed Property: Inhibition 4 (%)
Supply the numeric figure in %, leaving out any unit text.

>  <Compound>
CCC(=O)N1CCC(NC(=O)Nc2ccc(OC(F)(F)F)cc2)CC1 [UNC10302681A, TPPU]

>  <Inhibition 4 (%)>
33.8

$$$$
>  <Compound>
CNc1nc(C)nc(N[C@H]2CCC[C@@H](C(=O)NCc3ccc(C#N)cc3C(F)(F)F)C2)n1 [UNC10302679A, GSK2256294A]

>  <Inhibition 4 (%)>
21.06

$$$$
>  <Compound>
CC(=O)N1CCC(NC(=O)NC23CC4CC(CC(C4)C2)C3)CC1 [UNC10302683A, AR9281]

>  <Inhibition 4 (%)>
34.11

$$$$

Suppose we examine the compound O=C(NC1CC1)C(=O)C(Cc1ccccc1)NC(=O)[C@H]1CCC(=O)N1Cc1ccccc1 (stereo partly shown) [UNC10302676A, ABT-957 (Alicapistat)] ; what Inhibition 4 value has been reported?
2.33
